- Tested on: 786-0 renal
- method: NCI-60 one-dose screen, 48 h
- run conditions: 10 µM unless noted
About 83,000 compounds went through this panel and 20% of them were active in at least one assay; those are over-represented in the sample as a whole. The source made the active and inactive calls. Rule for the calls: active = growth percent below 10; inactive = the rest.
Valid outcomes are listed here; reply with one: true (1) (active), false (0) (inactive)

Worked cases, answers included:
# structure notation, target or system, assigned category
records = [
    ("C1CN1c1nc(N2CC2)nc(N2CC2)n1", "786-0 renal", "true (1)"),
    ("CC(=O)[O][Hg][c]1nc2c(c(=O)n(C)c(=O)n2C)n1C", "786-0 renal", "false (0)"),
    ("CC1(C)N=C(N)N=C(N)N1c1ccc(OCCCCNC(=O)Nc2cccc(S(=O)(=O)F)c2)c(Cl)c1", "786-0 renal", "false (0)"),
    ("Nc1ccc(N)c2c1Oc1ccccc1O2", "786-0 renal", "false (0)"),
]

Now for a further molecule.
Write down the call the test reported for this molecule. Item: CC(C)(O)/C=C/C(=O)[C@](C)(O)[C@H]1[C@H](O)C[C@@]2(C)[C@@H]3CC=C4[C@@H](C=C(O)C(=O)C4(C)C)[C@]3(C)C(=O)C[C@]12C
true (1)

Source: PubChem BioAssay (NCI)
